tested on: U937 cells; assay: Cellular assay in U937 cells on cell death (necroptosis), TNFα/zVAD.fmk; assay type: cell-based; settings: Table 2; listed as 10; read-out: U937 IC50
MEASURE: pIC50
// pIC50: -log10(molar conc.)

# input compound: COC(=O)c1ccnc(N2CCC(C(=O)N3OCC[C@H]3c3cncc(C#N)c3)CC2)n1 ; wanted: its pIC50
6.68

* * *

molecular target: hRIPK1 (aa 1-375) fusion protein (Homo sapiens, UniProt Q13546); construct: hRIPK1 (aa 1-375) fusion protein; assay: ADP-Glo kinase assay, RIPK1 autophosphorylation; format: biochemical; conditions: Table 1
Sequence (Q13546 1-375): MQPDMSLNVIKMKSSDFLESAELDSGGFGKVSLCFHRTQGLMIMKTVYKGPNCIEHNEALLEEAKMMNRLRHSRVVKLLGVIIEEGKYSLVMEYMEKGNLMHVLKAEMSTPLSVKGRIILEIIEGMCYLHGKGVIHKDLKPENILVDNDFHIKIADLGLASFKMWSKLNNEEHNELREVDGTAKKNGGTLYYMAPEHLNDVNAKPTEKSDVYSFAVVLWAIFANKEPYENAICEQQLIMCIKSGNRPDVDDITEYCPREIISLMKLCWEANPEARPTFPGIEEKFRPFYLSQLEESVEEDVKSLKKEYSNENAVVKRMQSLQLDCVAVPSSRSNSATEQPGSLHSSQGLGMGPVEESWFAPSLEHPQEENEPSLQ
Counter-ions that a name gives are not always drawn.
MEASURE: log10 IC50 (log10 of the value in nM)
In our notation, the value equals log10 of IC50 in nM.

Worked cases, log10 IC50 given:
> print(dat)
                                   compound                        measurement.target     measure  observed.result
1  COc1nc(N2CCC(C(=O)N3OCC[C@H]3c3cncc(C#N)c3)CC2)ncc1F  hRIPK1 (aa 1-375) fusion protein (Homo sapiens, UniProt Q13546)  log10 IC50             1.15
2  Cc1coc([C@@H]2CCON2C(=O)C2CCN(c3cc(C#N)ncn3)CC2)c1 [compound 152, 2,2,2-trifluoroacetate salt]  hRIPK1 (aa 1-375) fusion protein (Homo sapiens, UniProt Q13546)  log10 IC50             2.12
3  Cn1cc(C2CCON2C(=O)C2CCN(c3nccc(C#N)n3)CC2)cn1 (racemic)  hRIPK1 (aa 1-375) fusion protein (Homo sapiens, UniProt Q13546)  log10 IC50             1.81
4  Cc1c(F)cncc1[C@@H]1CCON1C(=O)C1CCN(c2cc(C#N)ncn2)CC1  hRIPK1 (aa 1-375) fusion protein (Homo sapiens, UniProt Q13546)  log10 IC50             2.51

// query log10 IC50 value for entry Cc1cncc([C@@H]2CCON2C(=O)C2CCN(c3cc(C(N)=O)ncn3)CC2)c1
1.62

Name the recorded log10 IC50 for N#Cc1ccc([C@@H]2CCON2C(=O)C2CCN(c3ncc(F)c(C(N)=O)n3)CC2)nc1 .
1.63

What does the data say about its log10 IC50? Entry: N#Cc1nc(N2CCC(C(=O)N3OCC[C@H]3c3cnccn3)CC2)ncc1F
1.27

I'd like to know its log10 IC50. The compound in question is Cc1ncc([C@@H]2CCON2C(=O)C2CCN(c3nccc(C(N)=O)n3)CC2)cc1C#N
1.20

Every entry's value here was drawn from patent US12655139B2.
